Assay: Critical micelle concentration (CMC) by dye solubilization (Orange OT or DPH)
Type: physicochemical
Details: determined by DPH (diphenylhexatriene) or Orange OT
readout-type: CMC (mM)

1 = O=C(CC1(C2CCCCC2)CCCCCC1)NC(CO[C@@H]1O[C@H](CO)[C@@H](O)[C@H](O)[C@H]1O)CO[C@@H]1O[C@H](CO)[C@@H](O)[C@H](O)[C@H]1O
2 = CCCCCCCCCCC(=O)NC(CO[C@@H]1O[C@H](CO)[C@@H](O)[C@H](O)[C@H]1O)CO[C@@H]1O[C@H](CO)[C@@H](O)[C@H](O)[C@H]1O
Task: Which has the higher CMC, 1 or 2 ? # reply format: chosen label
Result: 1
(1: 13.8 mM, 2: 8.1 mM)

1 = CCCCC(CCCC)(CC(=O)NC(CO[C@@H]1O[C@H](CO)[C@@H](O)[C@H](O)[C@H]1O)CO[C@@H]1O[C@H](CO)[C@@H](O)[C@H](O)[C@H]1O)CC(C)C
2 = CC12CC3CC(C)(C1)CC(CC(=O)NCCO[C@H]1OC(CO)[C@H](O[C@@H]4OC(CO)[C@H](O)C(O)[C@H]4O)C(O)[C@H]1O)(C3)C2 (stereo partly drawn)
Task: Which has the higher CMC, 1 or 2 ? # reply format: chosen label
Result: 2

I = CCCCC(CC(=O)NC(CO[C@@H]1O[C@H](CO)[C@@H](O)[C@H](O)[C@H]1O)CO[C@@H]1O[C@H](CO)[C@@H](O)[C@H](O)[C@H]1O)(C1CCCCC1)C1CCCCC1
II = CCCCCC(CC(=O)NC(CO[C@@H]1O[C@H](CO)[C@@H](O)[C@H](O)[C@H]1O)CO[C@@H]1O[C@H](CO)[C@@H](O)[C@H](O)[C@H]1O)(C1CCCCC1)C1CCCCC1
III = CCCC[C@]1(CC(=O)NC(CO[C@H]2OC(CO)[C@H](O)C(O)[C@H]2O)CO[C@H]2OC(CO)[C@H](O)C(O)[C@H]2O)C2C[C@@H]3C[C@H](C2)C[C@@H]1C3 (stereo partly drawn)
Task: Arrange the 3 molecules from largest to smallest CMC. List the labels in the requested order.
Result: III, I, II

P = CCCCC(CCCC)(CC(=O)NC(CO[C@@H]1O[C@H](CO)[C@@H](O)[C@H](O)[C@H]1O)CO[C@@H]1O[C@H](CO)[C@@H](O)[C@H](O)[C@H]1O)c1ccc(I)cc1
Q = CC(C)(C)CC(C)(C)c1ccc(OCC(=O)NC(COC2OC(CO)C(O)C(O)C2O)COC2OC(CO)C(O)C(O)C2O)cc1 (stereo not drawn)
R = O=C(NCCO[C@@H]1O[C@H](CO)[C@@H](O[C@H]2O[C@H](CO)[C@@H](O)[C@H](O)[C@H]2O)[C@H](O)[C@H]1O)C(C1CCCCC1)C1CCCCC1
Task: Arrange the 3 molecules from largest to smallest CMC. List the labels in the requested order.
Result: R, Q, P
(R: 13.9 mM, Q: 2.6 mM, P: 0.89 mM)
